Test system: SR leukemia
PROCEDURE DETAILS: NCI-60 one-dose screen, 48 h
CONDITION SET: 10 µM unless noted
This is part of a sample that, as a whole, favours compounds with a hit. Of some 83,000 tested, about 20% had one in any assay. Calls of active or inactive are those of the source. How the source made its calls: active means growth percent below 10; inactive means the rest.
A correct response names exactly one class from active, inactive

COMPOUND	DISCRETE LABEL
c1ccc2c(c1)CCCc1nnc3nc4ccccc4n3c1-2	inactive
C[C@@H]1O[C@@H](O[C@@H]2C[C@H](c3ccc4c(c3O)C(=O)C3=C(C4=O)[C@@]4(O)C(=O)C[C@](C)(O)C[C@@]4(O)C=C3)O[C@H](C)[C@H]2O)CC[C@@H]1O[C@H]1C[C@@H](O)[C@H](O)[C@@H](C)O1	inactive
Clc1c(Cl)[n+](Cc2ccc3ccccc3c2)cn1Cc1ccc2ccccc2c1	active
Cc1ccc(/C=C(\C#N)n2nnc3cc(F)c(F)cc32)cc1	active
N#C/C(=C\c1ccc(-c2cccc(C(F)(F)F)c2)o1)c1ccccc1	inactive

stdin: Hi, sorry to bother you, what did the test record for C=C1C(=O)O[C@H]2[C@H]1CC/C(COC(=O)c1ccc(C(=O)O)s1)=C\CC[C@@]1(C)O[C@@H]21 ?
stdout: active

stdin: Would you mind telling me which call this test gave O=C(/C=C(O)/C=C/c1cccc2[nH]ccc12)/C=C/c1cccc2[nH]ccc12 ?
stdout: inactive

stdin: Hi team, can someone confirm the assay call for O=[N+]([O-])c1ccc(-c2cn3nc(-c4c[nH]c5ccccc45)sc3n2)cc1 ?
stdout: inactive

stdin: Which result was noted for this compound in the test: COc1cccc(/C=C/C(=O)c2cccc(Nc3nc(Nc4ccccc4)nc(Nc4ccccc4)n3)c2)c1
stdout: inactive

stdin: Outcome? C#CCO[C@H]1CC(CC#C)(CC#C)C(=O)[C@@H]2[C@H]1[C@H]1C[C@@H]3[C@@]4(C)CCC[C@@](C)(C(=O)OC)[C@@H]4CC[C@@]23C=C1C(C)C
stdout: active

stdin: Just curious, what result did COc1cccc(CNc2c3ccccc3nc3ccccc23)c1 get here?
stdout: active

stdin: Outcome logged for N#Cc1cccc(C2C3=C(COC3=O)N(CCO)c3cc4c(cc32)OCO4)c1 (centres undefined) in this assay:
stdout: inactive

stdin: Entry O=C1Nc2ccccc2/C1=C/c1cccn1C(=O)c1ccc(Cl)s1 : call = ?
stdout: inactive

stdin: What was the test verdict on COc1cc2c(cc1OCCCCN1CCN(C(=S)SCCC(C#N)(c3ccccc3)c3ccccc3)CC1)N=C[C@@H]1CCCN1C2=O ?
stdout: active

stdin: What was the test verdict on O=C(Oc1ccc(CCl)cc1)c1ccccc1 ?
stdout: active

stdin: Test call, this compound: C=C1CC[C@@H]2[C@](C)(COC(C)=O)[C@H](OC(C)=O)CC[C@@]2(C)[C@@H]1CC(Nc1ccc(S(=O)(=O)NC(C)=O)cc1)C1=CCOC1=O (some centres undefined)
stdout: active

stdin: Hello, I am checking results. What call was entered for Cc1c(CN)cc(-c2ccc(Cl)cc2)n1-c1ccccc1 ?
stdout: inactive

stdin: Test call, this compound: N#Cc1cccc(C2C3=C(COC3=O)N(CCO)c3cc4c(cc32)CCC4)c1 (centres undefined)
stdout: inactive

stdin: Name the outcome recorded for CC1(C)N=C(N)N=C(N)N1c1cccc(CCc2ccccc2)c1 in the assay.
stdout: inactive

stdin: State the result this test recorded for C=C1C(=O)O[C@H]2[C@H]1CC/C(Cn1cc(CCC)nn1)=C\CC[C@@]1(C)O[C@@H]21 .
stdout: active

stdin: Tell me the assay call for CN1CCN(CCOc2ccc(-c3cnc4c(-c5ccc(F)cc5)cnn4c3)cc2)CC1 please.
stdout: active

stdin: For this compound, state the assay outcome: O=C(N/N=C\c1cccc([N+](=O)[O-])c1)N/N=C/c1cccc([N+](=O)[O-])c1
stdout: inactive

stdin: Outcome? COc1cc(/C=C/C(=O)c2ccc(-n3cc(CN4CCN(c5cc6c(cc5F)c(=O)c(C(=O)O)cn6C5CC5)CC4)nn3)cc2)ccc1O
stdout: inactive

stdin: Entry CCOC(=O)c1nn(CC(O)c2ccccc2)c(NC(=O)Nc2cccc(F)c2)c1C (centres undefined) : call = ?
stdout: inactive
